Biological target: T1, orthogonal hCD122 receptor (hoRb), hCD122 with H133D and Y134F (human, UniProt P14784 27-550)
T1 sequence: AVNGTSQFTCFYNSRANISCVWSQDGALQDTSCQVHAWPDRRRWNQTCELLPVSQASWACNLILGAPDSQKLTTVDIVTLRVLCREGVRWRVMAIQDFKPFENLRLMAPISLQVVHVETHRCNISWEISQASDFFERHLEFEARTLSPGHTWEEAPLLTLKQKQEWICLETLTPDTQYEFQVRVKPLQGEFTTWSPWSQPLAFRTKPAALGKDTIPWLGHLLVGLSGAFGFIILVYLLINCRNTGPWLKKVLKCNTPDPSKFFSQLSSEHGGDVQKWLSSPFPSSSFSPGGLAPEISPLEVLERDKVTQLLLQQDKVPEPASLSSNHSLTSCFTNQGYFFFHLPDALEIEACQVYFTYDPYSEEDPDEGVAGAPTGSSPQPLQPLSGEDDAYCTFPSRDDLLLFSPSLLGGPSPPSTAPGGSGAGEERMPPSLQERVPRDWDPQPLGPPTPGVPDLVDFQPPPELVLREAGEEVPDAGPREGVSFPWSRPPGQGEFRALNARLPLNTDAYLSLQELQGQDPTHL
Experiment: cell-based or functional assay
PROPERTY: NKL Ortho Proliferation Signal 1:2

BINDER: ΔH16, S_VLKA (ligand) APTSSSTKKTQLQLSLLVLLKAILNGINNYKNPKLTRMLTFKFYMPKKATELKHLQCLEEELKPLEEVLNLAQSKNFHLRPRDLISNINVIVLELKGSETTFMCEYADETATIVEFLNRWITFCQSIISTLT
PROPERTY: NKL Ortho Proliferation Signal 1:2
TEST_RESULT: 20900

1. ΔM23, SQVLK- (ligand) APTSSSTKKTQLQLSQLLVLLKILNGINNYKNPKLTRMLTFKFYMPKKATELKHLQCLEEELKPLEEVLNLAQSKNFHLRPRDLISNINVIVLELKGSETTFMCEYADETATIVEFLNRWITFCQSIISTLT
2. SNVLKA (ligand) APTSSSTKKTQLQLSNLLVLLKAILNGINNYKNPKLTRMLTFKFYMPKKATELKHLQCLEEELKPLEEVLNLAQSKNFHLRPRDLISNINVIVLELKGSETTFMCEYADETATIVEFLNRWITFCQSIISTLT
**Q:** # return whichever of 1 and 2 has the smaller NKL Ortho Proliferation Signal 1:2 Mark your answer with the label of the selected entry.
**A:** 1
